system: Staphylococcus aureus; experiment: Broth microdilution MIC/MBC against planktonic cells; type: cell-based; conditions: ATCC29213, S. aureus ATCC 29213, control strain
MEASURED PARAMETER: MBC (µg/mL)

O=C(/C=C/c1ccccc1)c1ccc(O)cc1O [DHC, 2′,4′-dihydroxychalcone]	50
COc1c(O)ccc(C(=O)/C=C/c2ccccc2)c1O [DHMC, 2′,4′-dihydroxy-3′-methoxychalcone]	200

###

molecular target: COX-2 (Homo sapiens, UniProt P35354)
Sequence (P35354 18-604): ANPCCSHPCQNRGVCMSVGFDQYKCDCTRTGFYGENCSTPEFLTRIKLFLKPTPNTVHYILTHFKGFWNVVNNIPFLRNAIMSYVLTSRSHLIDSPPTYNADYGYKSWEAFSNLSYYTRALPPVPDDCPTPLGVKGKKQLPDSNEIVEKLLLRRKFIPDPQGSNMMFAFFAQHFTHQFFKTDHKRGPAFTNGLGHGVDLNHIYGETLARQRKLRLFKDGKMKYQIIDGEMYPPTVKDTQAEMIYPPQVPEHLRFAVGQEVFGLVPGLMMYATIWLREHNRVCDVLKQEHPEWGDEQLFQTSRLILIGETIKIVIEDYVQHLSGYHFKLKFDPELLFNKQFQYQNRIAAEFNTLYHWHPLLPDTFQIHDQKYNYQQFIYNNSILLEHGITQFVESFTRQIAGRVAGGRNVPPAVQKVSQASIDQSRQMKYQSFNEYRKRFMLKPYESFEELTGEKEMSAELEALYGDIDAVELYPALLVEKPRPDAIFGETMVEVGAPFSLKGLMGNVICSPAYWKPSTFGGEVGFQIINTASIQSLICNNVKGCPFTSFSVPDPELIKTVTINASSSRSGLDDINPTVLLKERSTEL
MEASURED PARAMETER: IC50 (µM)

O=C(/C=C/c1ccccc1)c1ccc(O)cc1O [DHC, 2′,4′-dihydroxychalcone]	7.16
O=c1c(O)c(-c2ccccc2)oc2cc(O)ccc12 [DHF, 3,7-dihydroxyflavone]	100
